Source of measurements: PubChem BioAssay (NCI)

test system: SF-539 CNS; assay: NCI tumour cell line growth inhibition, 48 h
VALUE_KIND: TGI

A selection of reference data follows.
- SUBSTANCE_SMILES: "O=C(CCCCCCCCCCc1ccccc1)c1c(O)cccc1O"
  MEAS_VALUE: "34.8 µM"
- SUBSTANCE_SMILES: "CN(C)c1ccc(C(=NNC(=O)c2cc3ccccc3[nH]2)c2ccc(N(C)C)cc2)cc1"
  MEAS_VALUE: "8.04 µM"
- SUBSTANCE_SMILES: "CC1=CC2=C(C)C3(CC3)[C@@](C)(O)C(=O)C2=C1"
  MEAS_VALUE: "0.47 µM"
- SUBSTANCE_SMILES: "CC1=C(C#N)C(N)=C2C(C)=C(C#N)C(N)=C12"
  MEAS_VALUE: "> 100 µM"

Input: Tell me reported TGI for "C/C(=C(/c1ccc(O)cc1)c1ccc(OCCN2CCCC2)cc1)c1ccccc1" , tested with SF-539 CNS.
Output: 3.76 µM

Input: Request - read-out TGI | tested on SF-539 CNS | molecule "Cc1ccc(-c2cc(-c3ccc(Cl)cc3)nc(/N=C3\C(=O)N(CN4CCCCC4)c4ccc(Cl)cc43)n2)cc1"
Output: 61.5 µM

---

Below is a list of entries, each paired with its recorded TGI value.
test system: SK-MEL-28 melanoma; assay: NCI tumour cell line growth inhibition, 48 h

These solved cases illustrate the format of a correct answer.
- COMPOUND: "CCOP(=O)(OCC)/C(C#N)=C\\c1cccc2ccccc12"
  TGI: "> 100 µM"
- COMPOUND: "Nc1ncnc2occ(-c3ccc(NC(=O)Nc4cc(C(F)(F)F)cc(C(F)(F)F)c4)cc3)c12"
  TGI: "7.77 µM"
- COMPOUND: "CN1C(=O)c2cc(Cl)nc3c(NC(=O)c4cccc(Cl)c4)c(Cl)c(NC(=O)c4cccc(Cl)c4)c1c23"
  TGI: "3.45 µM"

Input: Need TGI, item "COc1c(O)c(OC)c(C(=O)/C=C/c2ccccc2)c(O)c1OC"
Output: > 100 µM

Input: Please give the measured TGI for this compound: "O=C1c2ccccc2-c2cc3ccccc3c(=O)n21"
Output: > 100 µM

Input: Would you mind telling me what TGI value was observed for "C/C(=N\N=C(N)N)c1c(C(=O)OCCCCCCOC(=O)c2nc3sccn3c2/C(C)=N/N=C(N)N)nc2sccn12" ?
Output: > 100 µM

Input: Fill in: TGI of "CC(C)(C)n1cc(-c2ccnc(NCCNS(=O)(=O)c3ccc(Br)cc3)c2)c(-c2cccc(O)c2)n1" is ___
Output: 3.26 µM

Input: GET /values?readout=TGI&item= "CCOc1ccc(NC(=O)c2c(N/N=C/c3ccc(OC)cc3)nc(=O)[nH]c2C)cc1"
Output: > 100 µM

Input: I'd like to know its TGI. The compound in question is O=c1[nH]c(=O)n(C2CC(O)C(CO)O2)cc1C#Cc1ccc(C(F)(F)F)cc1 (stereo unspecified)
Output: > 100 µM

Input: I would be grateful if you could share the reported TGI for "CC1(C)OC[C@@H](/C=C\CCO[Si](c2ccccc2)(c2ccccc2)C(C)(C)C)N1C(=O)c1ccccc1" .
Output: > 100 µM

---

system: MOLT-4 leukemia; assay: NCI tumour cell line growth inhibition, 48 h
VALUE_KIND: TGI

- MOLECULE: "Cc1cc(CS(=O)(=O)/C=C/c2ccccc2[N+](=O)[O-])c(CS(=O)(=O)/C=C/c2ccccc2[N+](=O)[O-])cc1C"
  VALUE_KIND: "TGI"
  MEAS_VALUE: "> 100 µM"
- MOLECULE: "CC(C)=CCN(N=O)c1ncnc2nc[nH]c12"
  VALUE_KIND: "TGI"
  MEAS_VALUE: "> 100 µM"
- MOLECULE: "Cc1cc(NS(=O)(=O)c2ccc(Nc3c4ccccc4nc4c(C(=O)NCCN(C)C)ccc(Cl)c34)cc2)no1"
  VALUE_KIND: "TGI"
  MEAS_VALUE: "1.74 µM"
- MOLECULE: "CC(CS(=O)(=O)Cc1ccccc1)C(N)=O (stereo not given)"
  VALUE_KIND: "TGI"
  MEAS_VALUE: "> 100 µM"

Attention now shifts to the item below.
Input: Give MOLT-4 leukemia TGI for "CC(=O)N(C(C)=O)n1c(Cc2ccc(Cl)cc2)nn(C(C)=O)c1=O"
Output: > 100 µM
